Assay: Circular dichroism (CD) α-helicity
Format: physicochemical
Conditions: Table 2; CD of free peptide, 25 °C, 1 mM Hepes pH 7.4, 5% methanol
Description: A total of 5 µL of the 10 mM stock peptide was mixed with 45 µL of 100% methanol, and dried for 2 h in the SpeedVac concentrator (Thermo Scientific). The dried peptide was reconstituted in a buffer (1 mM Hepes pH 7.4 and 5% methanol) to a concentration of 1 mM. […] The peptide concentration was determined by the absorbance of the peptide at […]. The CD spectrum was recorded from 300 to 190 nm using the Chirascan-plus qCD machine (Applied Photophysics, Surrey, UK), at 25 °C. […]
METRIC: Helicity (%)
Write the answer as a number in %, unit excluded.

Helicity (%) recorded for this compound, CC(=O)N[C@@H](CCCCN=[N+]=[N-])C(=O)NCCC(=O)N[C@@H](CC(C)C)C(=O)N[C@H](C(=O)N[C@@H](Cc1ccccc1)C(=O)N[C@]1(C)CCCCCCC=CCCC[C@@](C)(C(=O)N2CCC[C@H]2C(=O)N[C@@H](C)C(=O)N[C@@H](C)C(N)=O)NC(=O)[C@H](CC2CCC2)NC(=O)[C@H](CCC(N)=O)NC(=O)[C@H](C)NC(=O)[C@H](Cc2c[nH]c3ccccc23)NC(=O)[C@H](Cc2ccc(O)cc2)NC(=O)[C@H](CCC(=O)O)NC1=O)[C@@H](C)O [Peptide S12P] , is 30.8

More entries:
Helicity (%) recorded for this compound, CC(=O)N[C@@H](CCCCN=[N+]=[N-])C(=O)NCCC(=O)NCC(=O)N[C@H](C(=O)N[C@@H](Cc1ccccc1)C(=O)N[C@]1(C)CCCCCCC=CCCC[C@@](C)(C(=O)N[C@@H](CO)C(=O)N[C@@H](C)C(=O)N[C@@H](C)C(N)=O)NC(=O)[C@H](CC2CCC2)NC(=O)[C@H](CCC(N)=O)NC(=O)[C@H](C)NC(=O)[C@H](Cc2c[nH]c3ccccc23)NC(=O)[C@H](Cc2ccc(O)cc2)NC(=O)[C@H](CCC(=O)O)NC1=O)[C@@H](C)O [Peptide L1G] , is 44.6

###

Target: human Mdm2 1–125 (Homo sapiens, UniProt Q00987)
Construct: GST (N); His6 (internal); TEV cleavage site ENLYFQG (internal); made in house; host or cells: Escherichia coli BL21 (DE3) Rosetta T1R
Sequence (Q00987 with tags, fused parts or gaps): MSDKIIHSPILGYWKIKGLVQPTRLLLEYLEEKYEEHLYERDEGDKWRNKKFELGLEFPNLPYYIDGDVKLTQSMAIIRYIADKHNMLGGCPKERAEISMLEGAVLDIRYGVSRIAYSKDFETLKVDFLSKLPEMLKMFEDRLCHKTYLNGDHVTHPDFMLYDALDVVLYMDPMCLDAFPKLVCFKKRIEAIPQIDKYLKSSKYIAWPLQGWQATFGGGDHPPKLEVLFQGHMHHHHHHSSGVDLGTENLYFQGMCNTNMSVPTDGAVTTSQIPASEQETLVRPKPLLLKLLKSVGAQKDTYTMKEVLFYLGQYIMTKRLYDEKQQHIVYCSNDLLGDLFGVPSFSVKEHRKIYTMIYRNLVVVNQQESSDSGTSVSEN
Experiment: Mdm2 binding assay (competitive fluorescence anisotropy/polarization)
Settings: Table 1; competitive fluorescence polarization; read-out: Mdm2 (nM), Mdm2 binding (Kd)
Method: The TEV (tobacco etch virus) cleavage site was changed from ENLYFQS to ENLYFQG to give a fusion protein with the following sequence: Titrations were carried out with the concentration of Mdm2 held constant at 250 nM and the labeled peptide at 50 nM. […] Kd1 is the apparent Kd for the labeled peptide used and was experimentally determined as described in the previous paragraph. […] Readings were carried out with an Envision Multilabel Reader (PerkinElmer). […]
METRIC: Kd
// return the numeric value with its unit appended

Kd recorded for this molecule, CC(=O)N[C@@H](CC(C)C)C(=O)N[C@H](C(=O)N[C@@H](Cc1ccccc1)C(=O)NC(C)(C)C(=O)N[C@@H](CCC(=O)O)C(=O)N[C@@H](Cc1ccc(O)cc1)C(=O)N[C@@H](Cc1c[nH]c2ccccc12)C(=O)N[C@H](CCC(N)=O)C(=O)N[C@@H](CC(C)C)C(=O)N[C@@H](CC1CCC1)C(=O)NC(C)(C)C(=O)N[C@@H](CO)C(=O)N[C@@H](C)C(=O)N[C@@H](C)C(N)=O)[C@@H](C)O , is 119 nM

More entries:
Kd recorded for this molecule, CC(=O)N[C@@H](CC(C)C)C(=O)N[C@H](C(=O)N[C@@H](Cc1ccccc1)C(=O)N[C@]1(C)CCCCCCC=CCCC[C@@](C)(C(=O)N[C@@H](CO)C(=O)N[C@@H](C)C(=O)N[C@@H](C)C(N)=O)NC(=O)[C@@H](CC2CCC2)NC(=O)[C@H](CC(C)C)NC(=O)[C@H](CCC(N)=O)NC(=O)[C@H](Cc2c[nH]c3ccccc23)NC(=O)[C@H](Cc2ccc(O)cc2)NC(=O)[C@H](CCC(=O)O)NC1=O)[C@@H](C)O , is 1650 nM

Kd recorded for this molecule, CC(=O)N[C@@H](CC(C)C)C(=O)N[C@H](C(=O)N[C@@H](Cc1ccccc1)C(=O)N[C@]1(C)CCCCCCC=CCCC[C@@](C)(C(=O)N[C@@H](CO)C(=O)N[C@@H](C)C(=O)N[C@@H](C)C(N)=O)NC(=O)[C@H](CC2CCC2)NC(=O)[C@H](CC(C)C)NC(=O)[C@H](CCC(N)=O)NC(=O)[C@H](Cc2c[nH]c3ccccc23)NC(=O)[C@H](Cc2ccc(O)cc2)NC(=O)[C@@H](CCC(=O)O)NC1=O)[C@@H](C)O , is 32 nM

src = paper PMC6632053
